# STUDY_TARGET: GABA receptor subunit (Musca domestica)
# Sequence (Q75NA5 whole entry): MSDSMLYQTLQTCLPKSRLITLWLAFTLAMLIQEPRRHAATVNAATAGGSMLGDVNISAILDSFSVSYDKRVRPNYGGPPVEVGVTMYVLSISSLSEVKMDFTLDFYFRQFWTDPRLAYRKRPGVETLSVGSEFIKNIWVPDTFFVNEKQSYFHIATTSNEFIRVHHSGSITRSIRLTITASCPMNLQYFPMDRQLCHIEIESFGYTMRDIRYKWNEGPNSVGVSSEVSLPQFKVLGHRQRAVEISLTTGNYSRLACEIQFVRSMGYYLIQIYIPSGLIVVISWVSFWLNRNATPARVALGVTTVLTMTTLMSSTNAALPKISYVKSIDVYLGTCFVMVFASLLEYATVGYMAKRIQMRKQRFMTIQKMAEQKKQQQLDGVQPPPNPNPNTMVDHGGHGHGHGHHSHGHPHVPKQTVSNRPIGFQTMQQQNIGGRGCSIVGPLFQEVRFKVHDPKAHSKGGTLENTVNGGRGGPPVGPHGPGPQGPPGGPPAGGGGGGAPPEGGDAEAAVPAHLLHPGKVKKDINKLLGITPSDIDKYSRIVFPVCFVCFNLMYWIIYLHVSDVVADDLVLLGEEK
# EXPERIMENT_NOTES: Displacement of [3H]EBOB from GABA receptor in Musca domestica (house fly) head P2 membrane after 70 min by liquid scintillation counting
PROPERTY: IC50 (nM)
Number in nM, nothing else.

{"COMPOUND": "CC(C)(C)CCOC(=O)c1ccc(C#CCCC(=O)O)cc1", "UNIT_ABBREV": "nM", "IC50": 88}

Let us move to another entry and its IC50.
IC50 measured on COc1cc(O)c2c(c1C)C(C)C(O)(COC(=O)c1ccc(O)c(CC=C(C)C)c1)OC2=O (configuration not stated) [DIHYDROISOCOUMARIN] = 88

---

# EXPERIMENT_NOTES: Displacement of [3H]EBOB from GABA receptor in Rattus norvegicus (rat) membrane after 70 min by liquid scintillation counting
# Type: cell membranes
PROPERTY: IC50 (µM)
Entry rule: numbers only, all in µM.

{"COMPOUND": "COc1cc(O)c2c(c1C)C(C)C(O)(COC(=O)c1ccc(O)c(CC=C(C)C)c1)OC2=O (configuration not stated) [DIHYDROISOCOUMARIN]", "IC50, µM": 3.41}

# input for lookup
Record "CC(C)(C)CCOC(=O)c1ccc(C#CCCC(=O)O)cc1" . Reported IC50: 3.41
